Where do these numbers come from? They come from ChEMBL document CHEMBL3108682.

Field: Cmax. Provide a value for each of the molecules that follow.
assay-text: Cmax in Sprague-Dawley rat at 5 mg/kg, po
Format: ADME, organism-based
Parameters: dose 5 mg/kg, route oral
stated-conditions: in vivo
Quick note: give the figure in nM, leave out the unit.

Q: Can you look up the measured Cmax of CCOc1ccc(N2CCN(c3noc(CC)n3)[C@@H](C)C2)c(C)c1 for me?
Ans: 380

Q: Can you look up the measured Cmax of CCOc1ccc(N2CCN(c3noc(C4(NC(C)=O)CCC4)n3)[C@@H](C)C2)c(C)c1 for me?
Ans: 1200

* * *

Field: bioavailability. Provide a value for each of the molecules that follow.
assay-text: Oral bioavailability in Sprague-Dawley rat at 5 mg/kg
Type: ADME, organism-based
stated-conditions: in vivo
Write the figure, then the unit, nothing else.

Q: Can you look up the measured bioavailability of CCOc1ccc(N2CCN(c3noc(CC)n3)[C@@H](C)C2)c(C)c1 for me?
Ans: 17%

Q: Can you look up the measured bioavailability of CCOc1ccc(N2CCN(c3noc(C4(NC(C)=O)CCC4)n3)[C@@H](C)C2)c(C)c1 for me?
Ans: 34%

* * *

Field: Vd. Provide a value for each of the molecules that follow.
assay-text: Volume of distribution at steady state in Sprague-Dawley rat at 2 mg/kg, iv
Format: ADME, organism-based
Design: dose 2 mg/kg, route intravenous
stated-conditions: in vivo, read-out: Vdss
Quick note: give the figure in L/kg, leave out the unit.

Q: Can you look up the measured Vd of CCOc1ccc(N2CCN(c3noc(CC)n3)[C@@H](C)C2)c(C)c1 for me?
Ans: 12.8

Q: Can you look up the measured Vd of CCOc1ccc(N2CCN(c3noc(C4(NC(C)=O)CCC4)n3)[C@@H](C)C2)c(C)c1 for me?
Ans: 1.8

* * *

assay-text: Oral bioavailability in C57BL6 mouse at 5 mg/kg
Format: ADME, organism-based
stated-conditions: in vivo
reported-property: bioavailability (%)
Quick note: give the figure in %, leave out the unit.

Q: Can you look up the measured bioavailability of CCOc1ccc(N2CCN(c3noc(C4(NC(C)=O)CCC4)n3)[C@@H](C)C2)c(C)c1 for me?
Ans: 46

* * *

assay-text: Volume of distribution at steady state in C57BL6 mouse at 2 mg/kg, iv
Format: ADME, organism-based
Parameters: dose 2 mg/kg, route intravenous
stated-conditions: in vivo, read-out: Vdss
reported-property: Vd
Write the figure, then the unit, nothing else.

Q: Can you look up the measured Vd of CCOc1ccc(N2CCN(c3noc(C4(NC(C)=O)CCC4)n3)[C@@H](C)C2)c(C)c1 for me?
Ans: 0.98 L/kg

* * *

assay-text: AUC (0 to 24 hrs) in Sprague-Dawley rat at 5 mg/kg, po
Assay type: ADME, organism-based
Set-up: time < 24 hr, dose 5 mg/kg, route oral
stated-conditions: plasma
reported-property: AUC(0-t) at 24 h

Q: Can you look up the measured AUC(0-t) at 24 h of CCOc1ccc(N2CCN(c3noc(CC)n3)[C@@H](C)C2)c(C)c1 for me?
Ans: 291 ng·h/mL
